target: human TRPC6 (Homo sapiens); construct: expressed in transfected cells; host or cells: HEK 293; assay: TRPC6 fluorescence-based assay (Ca2+ flux assay in FLIPR format), cells overexpressing TRPC6; assay type: cell-based; conditions: 5 μM of test compound, following Carbachol stimulation
Sequence (Q9Y210 whole entry): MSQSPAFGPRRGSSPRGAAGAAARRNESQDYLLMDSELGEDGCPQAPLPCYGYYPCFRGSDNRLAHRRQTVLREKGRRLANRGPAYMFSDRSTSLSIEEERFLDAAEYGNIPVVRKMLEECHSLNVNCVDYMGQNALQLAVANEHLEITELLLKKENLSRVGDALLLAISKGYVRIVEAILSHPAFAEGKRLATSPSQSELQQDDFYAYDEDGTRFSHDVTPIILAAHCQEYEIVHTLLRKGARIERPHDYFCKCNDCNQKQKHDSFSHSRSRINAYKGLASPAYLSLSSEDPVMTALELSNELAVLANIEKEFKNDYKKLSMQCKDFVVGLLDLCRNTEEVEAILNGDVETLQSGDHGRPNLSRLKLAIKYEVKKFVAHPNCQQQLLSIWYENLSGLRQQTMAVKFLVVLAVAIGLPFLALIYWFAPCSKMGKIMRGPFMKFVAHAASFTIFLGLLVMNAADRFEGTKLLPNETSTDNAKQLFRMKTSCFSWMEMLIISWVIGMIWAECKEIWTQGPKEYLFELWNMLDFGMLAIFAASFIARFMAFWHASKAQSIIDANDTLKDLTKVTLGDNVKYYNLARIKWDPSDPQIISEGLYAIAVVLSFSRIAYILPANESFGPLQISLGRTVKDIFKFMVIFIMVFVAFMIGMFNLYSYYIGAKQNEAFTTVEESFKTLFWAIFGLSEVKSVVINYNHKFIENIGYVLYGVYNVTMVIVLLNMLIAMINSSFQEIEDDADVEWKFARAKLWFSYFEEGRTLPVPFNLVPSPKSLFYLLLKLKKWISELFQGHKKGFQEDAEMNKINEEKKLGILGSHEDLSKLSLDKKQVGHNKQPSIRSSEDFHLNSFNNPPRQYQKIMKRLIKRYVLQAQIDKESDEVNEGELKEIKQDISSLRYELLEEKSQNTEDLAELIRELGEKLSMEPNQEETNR
Note to self: values exactly at 70% are T. So inhibition at 5 µM at or above 70% is T, below is F.

Check out these entries, answers already filled in.
Compound	Cat
CCOc1ccc(NCc2nc3ccccc3n2CCOc2ccccc2C)cc1	F
Cc1ccc(NC(=O)Cn2c(C)nc3ccccc32)cc1	T
Fc1cccc(Cl)c1Cn1c(-c2ccco2)nc2ccccc21	F
CCN(CC)CCn1c(NCc2ccc(OC)cc2OC)nc2ccccc21	F

Input line: Is inhibition at 5 µM for COc1ccc(OCc2nc3ccccc3n2CCc2ccccc2)cc1 at or above 70%?
Output line: F

Input line: Follow-up item: Nc1nc2ccccc2n1CCOc1ccccc1Cl
Output line: F

Input line: Follow-up item: CCn1c(NCc2cccc(Br)c2)nc2ccccc21
Output line: F

Input line: Follow-up item: Nc1nc2ccccc2n1Cc1ccc(Cl)c(Cl)c1
Output line: T

Input line: Follow-up item: CC(C)(C)NC(=O)Cn1c(NCc2ccccc2)nc2ccccc21
Output line: F

Input line: Follow-up item: COc1ccc(-n2c(SCC(=O)Nc3cccc(S(=O)(=O)N4CCOCC4)c3)nc3ccccc32)cc1
Output line: F

Input line: Follow-up item: COCCn1c(SCC(=O)Nc2cccc3ncccc23)nc2ccccc21
Output line: T

Input line: Follow-up item: CCCCn1c(NCc2cccs2)nc2ccccc21 [drawing 80]
Output line: T
